target: recombinant Arabidopsis thaliana GAT-ADCS (Arabidopsis thaliana, UniProt Q8LPN3); construct: made in house; test: Determination of GAT-ADCS activities (glutamate or pABA production, fluorescence); assay type: biochemical; conditions: pABA production, varying glutamine, 100 µM chorismate, 20 minutes incubation with rubreserine; estimated from the curves; read-out: αKi
Sequence (Q8LPN3 46-919): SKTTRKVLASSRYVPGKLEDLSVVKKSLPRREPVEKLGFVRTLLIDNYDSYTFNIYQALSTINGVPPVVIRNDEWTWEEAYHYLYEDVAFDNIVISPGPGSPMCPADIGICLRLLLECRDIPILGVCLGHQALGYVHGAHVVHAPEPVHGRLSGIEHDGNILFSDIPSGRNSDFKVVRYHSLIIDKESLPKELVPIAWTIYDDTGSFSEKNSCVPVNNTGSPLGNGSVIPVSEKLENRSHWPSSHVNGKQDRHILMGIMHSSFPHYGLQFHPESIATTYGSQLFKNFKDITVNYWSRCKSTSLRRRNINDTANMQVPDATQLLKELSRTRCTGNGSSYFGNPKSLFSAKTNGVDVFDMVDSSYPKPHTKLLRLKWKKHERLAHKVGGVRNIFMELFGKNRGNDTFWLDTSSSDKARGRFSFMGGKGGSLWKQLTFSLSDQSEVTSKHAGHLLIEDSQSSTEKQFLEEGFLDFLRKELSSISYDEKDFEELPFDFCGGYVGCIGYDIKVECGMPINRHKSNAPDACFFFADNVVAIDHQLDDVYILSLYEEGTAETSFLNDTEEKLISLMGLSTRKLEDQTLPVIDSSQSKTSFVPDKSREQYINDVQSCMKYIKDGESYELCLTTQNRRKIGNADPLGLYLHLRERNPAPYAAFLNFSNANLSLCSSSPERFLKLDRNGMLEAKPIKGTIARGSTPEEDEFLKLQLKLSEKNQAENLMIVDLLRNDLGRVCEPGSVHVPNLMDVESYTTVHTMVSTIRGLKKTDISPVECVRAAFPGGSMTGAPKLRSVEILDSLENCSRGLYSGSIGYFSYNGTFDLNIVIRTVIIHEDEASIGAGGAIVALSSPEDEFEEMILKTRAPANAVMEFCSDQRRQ
parameter_measured: Ki

1. CN1CCC2(C)C3=CC(=O)C(=O)C=C3N(C)C12 (stereo not shown)    ~9 µM

* * *

molecular target: recombinant Arabidopsis thaliana GAT-ADCS (Arabidopsis thaliana); construct: made in house; assay: Determination of GAT-ADCS activities (glutamate or pABA production, fluorescence); assay type: biochemical; details: bifunctional GAT-ADCS; summary statement; read-out: apparent inhibitory constant (Ki)
parameter_measured: Ki

1) CN1CCC2(C)C3=CC(=O)C(=O)C=C3N(C)C12 (stereo not shown) [rubreserine]    < 10 µM
